- Tested on: MCF-7 cells
- assay: In vitro test of cell activity (MCF-7 cells, insulin stimulation, ELISA-One fluorescence)
- Format: cell-based
- experimental.context: Homo sapiens, MCF7, MCF-7 cells; read-out: IC50 p-p70S6K
measurement.type: IC50

IN: Name the recorded IC50 for COc1ncc(-c2ccc3nccc(=O)n3c2)cc1NS(=O)(=O)c1ccccc1Cl [compound 30] .
OUT: 0.05 to 0.1 µM

IN: COc1ncc(-c2ccc3ncc(F)c(=O)n3c2)cc1NS(=O)(=O)c1cc(F)ccc1F [compound 65] ?
OUT: 0.05 to 0.1 µM

IN: CCOc1cnc2ccc(-c3cnc(OC)c(NS(=O)(=O)c4ccc(Cl)s4)c3)cn2c1=O [compound 174] ?
OUT: ≤ 0.05 µM

IN: COc1ncc(-c2ccc3ncc(C)c(=O)n3c2)cc1NS(=O)(=O)c1ccc(F)cc1Cl [compound 83] ?
OUT: 0.05 to 0.1 µM

IN: COc1ncc(-c2ccc3nccc(=O)n3c2)cc1NS(=O)(=O)c1sccc1Cl [compound 34] ?
OUT: 0.05 to 0.1 µM

IN: COc1ncc(-c2ccc3ncc(Cl)c(=O)n3c2)cc1NS(=O)(=O)c1ncccc1Cl [compound 159] ?
OUT: 0.1 to 0.25 µM

IN: COc1ncc(-c2ccc3ncc(-n4ccc(C)n4)c(=O)n3c2)cc1NS(=O)(=O)c1sc(C)nc1C [compound 218] ?
OUT: 0.1 to 0.25 µM

IN: COc1ncc(-c2ccc3nccc(=O)n3c2)cc1NS(=O)(=O)c1ccc(C)cc1F [compound 28] ?
OUT: 0.05 to 0.1 µM

IN: COc1ncc(-c2ccc3nccc(=O)n3c2)cc1NS(=O)(=O)c1ccc(F)cc1Cl [compound 25] ?
OUT: 0.05 to 0.1 µM

IN: COc1ncc(-c2ccc3ncc(C)c(=O)n3c2)cc1NS(=O)(=O)c1ccc(Cl)cc1F [compound 82] ?
OUT: 0.1 to 0.25 µM

IN: COc1ncc(-c2ccc3ncc(N)c(=O)n3c2)cc1NS(=O)(=O)c1ccc(F)cc1F [compound 87] ?
OUT: 0.1 to 0.25 µM

IN: COc1ncc(-c2ccc3ncc(Cl)c(=O)n3c2)cc1NS(=O)(=O)c1ccc(F)cc1C [compound 134] ?
OUT: 0.05 to 0.1 µM

IN: COc1ncc(-c2ccc3nccc(=O)n3c2)cc1NS(=O)(=O)c1ccccc1F [compound 2] ?
OUT: > 0.25 µM

IN: COc1ncc(-c2ccc3ncc(Cl)c(=O)n3c2)cc1NS(=O)(=O)c1c(F)cccc1F [compound 148] ?
OUT: 0.05 to 0.1 µM

IN: COc1ncc(-c2ccc3nccc(=O)n3c2)cc1NS(=O)(=O)c1ccc(C(F)(F)F)cc1 [compound 22] ?
OUT: 0.1 to 0.25 µM

IN: COc1ncc(-c2ccc3nccc(=O)n3c2)cc1NS(=O)(=O)c1cc(F)ccc1F [compound 4] ?
OUT: 0.1 to 0.25 µM

====

- System: MCF-7 cells
- assay: In vitro test of cell activity (MCF-7 cells, insulin stimulation, ELISA-One fluorescence)
- Format: cell-based
- experimental.context: Homo sapiens, MCF7, MCF-7 cells, conc. 0.25 μM; read-out: % inhibition p70s6k
measurement.type: inhibition at 0.25 µM (%)
Write the answer as a number in %, unit excluded.

IN: Name the recorded inhibition at 0.25 µM for COc1ncc(-c2ccc3ncc(-n4ccc(C)n4)c(=O)n3c2)cc1NS(=O)(=O)c1sc(C)nc1C .
OUT: 85

IN: CCOc1cnc2ccc(-c3cnc(OC)c(NS(=O)(=O)c4ccc(Cl)s4)c3)cn2c1=O ?
OUT: 78.4

IN: COc1ncc(-c2ccc3ncc(Cl)c(=O)n3c2)cc1NS(=O)(=O)c1cnc(Cl)s1 ?
OUT: 71.6

IN: COc1ncc(-c2ccc3ncc(-n4ccc(C)n4)c(=O)n3c2)cc1NS(=O)(=O)c1ccc(F)cc1F ?
OUT: 31

IN: CCOc1cnc2ccc(-c3cnc(OC)c(NS(=O)(=O)c4ccc(F)cc4Cl)c3)cn2c1=O ?
OUT: 74.4

IN: COc1ncc(-c2ccc3ncc(O)c(=O)n3c2)cc1NS(=O)(=O)c1ccccc1Cl ?
OUT: 18.2

IN: COc1ncc(-c2ccc3ncc(Cl)c(=O)n3c2)cc1NS(=O)(=O)c1ncccc1Cl ?
OUT: 84.8

IN: COc1ncc(-c2ccc3ncc(Cl)c(=O)n3c2)cc1NS(=O)(=O)c1nnc(C)s1 ?
OUT: 5.1

====

- Test system: MCF-7 cells
- assay: In vitro test of cell activity (MCF-7 cells, insulin stimulation, ELISA-One fluorescence)
- Type: cell-based
- experimental.context: Homo sapiens, MCF7, MCF-7 cells, conc. 0.25 μM; read-out: % inhibition p70s6k
Use 80% as the dividing line for inhibition at 0.25 µM, with the line itself on the class 1 side and lower values as class 0.

IN: Is inhibition at 0.25 µM at least 80%? Consider COc1ncc(-c2ccc3ncc(Cl)c(=O)n3c2)cc1NS(=O)(=O)c1ccc(F)cc1
OUT: class 1

IN: COc1ncc(-c2ccc3nc(C)cc(=O)n3c2)cc1NS(=O)(=O)c1ccc(F)cc1F ?
OUT: class 0

IN: COc1ncc(-c2ccc3ncc(Cl)c(=O)n3c2)cc1NS(=O)(=O)c1cnc(C)[nH]1 ?
OUT: class 0

IN: COc1ncc(-c2ccc3ncc(Cl)c(=O)n3c2)cc1NS(=O)(=O)c1cnc(N)s1 ?
OUT: class 0

IN: COCCOc1cnc2ccc(-c3cnc(OC)c(NS(=O)(=O)c4ccc(F)cc4F)c3)cn2c1=O ?
OUT: class 0

IN: COc1ncc(-c2ccc3ncc(Cl)c(=O)n3c2)cc1NS(=O)(=O)c1c(C)n[nH]c1C ?
OUT: class 1

IN: COc1ncc(-c2ccc3ncc(-n4ccc(C)n4)c(=O)n3c2)cc1NS(=O)(=O)c1ccccc1Cl ?
OUT: class 0

IN: COc1ncc(-c2ccc3ncc(Cl)c(=O)n3c2)cc1NS(=O)(=O)c1cccnc1C ?
OUT: class 1

IN: COc1ncc(-c2ccc3ncc(Cl)c(=O)n3c2)cc1NS(=O)(=O)c1c(C)noc1C ?
OUT: class 1

IN: CCOc1cnc2ccc(-c3cnc(OC)c(NS(=O)(=O)c4ccc(F)cc4F)c3)cn2c1=O ?
OUT: class 0

IN: COc1ncc(-c2ccc3ncc(Cl)c(=O)n3c2)cc1NS(=O)(=O)c1sc(C)nc1C ?
OUT: class 1

IN: COc1ncc(-c2ccc3ncc(Cl)c(=O)n3c2)cc1NS(=O)(=O)c1nc(C)c(C)s1 ?
OUT: class 1

IN: COc1ncc(-c2ccc3ncc(Cl)c(=O)n3c2)cc1NS(=O)(=O)c1ccc(C)cc1Cl ?
OUT: class 1

IN: COc1ncc(-c2ccc3ncc(-n4ccc(C)n4)c(=O)n3c2)cc1NS(=O)(=O)c1ccc(F)cc1Cl ?
OUT: class 0

IN: COc1ncc(-c2ccc3ncc(Cl)c(=O)n3c2)cc1NS(=O)(=O)c1ncc(C)s1 ?
OUT: class 0

====

Exercise: for every item that follows, state its recorded IC50.
- tested.system: PI3K (p110α) kinase (Homo sapiens, UniProt P42336)
- Sequence (P42336 whole entry): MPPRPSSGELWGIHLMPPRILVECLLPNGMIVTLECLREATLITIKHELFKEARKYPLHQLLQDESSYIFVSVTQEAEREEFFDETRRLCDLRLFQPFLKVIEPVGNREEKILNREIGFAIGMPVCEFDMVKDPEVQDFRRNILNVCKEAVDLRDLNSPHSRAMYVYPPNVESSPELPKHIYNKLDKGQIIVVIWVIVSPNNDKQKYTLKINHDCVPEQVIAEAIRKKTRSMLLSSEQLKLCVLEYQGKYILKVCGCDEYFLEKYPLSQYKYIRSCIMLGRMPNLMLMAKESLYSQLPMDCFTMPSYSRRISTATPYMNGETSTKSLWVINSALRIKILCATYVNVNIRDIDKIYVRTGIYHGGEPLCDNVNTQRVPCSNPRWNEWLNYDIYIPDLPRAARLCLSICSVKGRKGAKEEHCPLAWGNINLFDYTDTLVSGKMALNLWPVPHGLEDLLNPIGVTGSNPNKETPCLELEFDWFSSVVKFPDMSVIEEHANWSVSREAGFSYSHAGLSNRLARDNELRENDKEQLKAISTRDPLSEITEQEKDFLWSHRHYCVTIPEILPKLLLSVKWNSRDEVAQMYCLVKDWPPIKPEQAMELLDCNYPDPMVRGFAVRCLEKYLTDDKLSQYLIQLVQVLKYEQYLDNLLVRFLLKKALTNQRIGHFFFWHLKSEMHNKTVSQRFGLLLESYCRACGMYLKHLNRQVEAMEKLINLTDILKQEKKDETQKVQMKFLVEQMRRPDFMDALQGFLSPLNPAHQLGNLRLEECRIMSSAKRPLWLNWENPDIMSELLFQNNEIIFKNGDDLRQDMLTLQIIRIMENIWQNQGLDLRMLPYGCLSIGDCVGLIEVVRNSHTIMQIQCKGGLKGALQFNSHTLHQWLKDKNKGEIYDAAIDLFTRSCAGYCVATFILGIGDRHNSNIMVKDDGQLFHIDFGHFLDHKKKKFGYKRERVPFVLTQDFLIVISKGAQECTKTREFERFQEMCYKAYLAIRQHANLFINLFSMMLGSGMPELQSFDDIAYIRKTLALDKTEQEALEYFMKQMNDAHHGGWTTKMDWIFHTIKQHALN

IN: Name the recorded IC50 for COCCOc1cnc2ccc(-c3cnc(OC)c(NS(=O)(=O)c4ccc(C)cc4C)c3)cn2c1=O [compound 244] .
OUT: ≤ 1 nM

IN: COc1ncc(-c2ccc3ncc(OCC4COC4)c(=O)n3c2)cc1NS(=O)(=O)c1ccc(C)cc1C [compound 251] ?
OUT: ≤ 1 nM

IN: COc1ncc(-c2ccc3nccc(=O)n3c2)cc1NS(=O)(=O)c1ccc(F)cc1Cl [compound 25] ?
OUT: 1 to 10 nM

IN: COc1ncc(-c2ccc3ncc(Cl)c(=O)n3c2)cc1NS(=O)(=O)c1ccc(F)cc1Cl [compound 135] ?
OUT: ≤ 1 nM

====

- System: MCF-7 cells
- assay: In vitro test of cell activity (MCF-7 cells, insulin stimulation, ELISA-One fluorescence)
- Format: cell-based
- experimental.context: Homo sapiens, MCF7, MCF-7 cells, conc. 1 μM; read-out: % inhibition AKT
Exercise: for every item that follows, state its recorded inhibition at 1 µM.
State the value, then name its unit.

IN: Name the recorded inhibition at 1 µM for COc1ncc(-c2ccc3nccc(=O)n3c2)cc1NS(=O)(=O)c1ccc(C#N)cc1 .
OUT: 94.1%

IN: COc1ncc(-c2ccc3nccc(=O)n3c2)cc1NS(=O)(=O)c1ccc(F)cc1Cl ?
OUT: 95.1%

IN: COc1ncc(-c2ccc3nccc(=O)n3c2)cc1NS(=O)(=O)C1CC1 ?
OUT: 76%

IN: COc1ncc(-c2ccc3nccc(=O)n3c2)cc1NS(=O)(=O)c1ccc(F)cc1C ?
OUT: 95.6%

IN: COc1ncc(-c2ccc3nccc(=O)n3c2)cc1NS(=O)(=O)c1ccccc1C ?
OUT: 93.8%

IN: COc1ncc(-c2ccc3nccc(=O)n3c2)cc1NS(=O)(=O)c1ccc(C)cc1F ?
OUT: 96.2%

IN: O=c1ccnc2ccc(-c3cnc(Cl)c(NS(=O)(=O)N4CCOCC4)c3)cn12 ?
OUT: 67.8%

IN: CCOc1ncc(-c2ccc3nccc(=O)n3c2)cc1NS(=O)(=O)c1ccc(F)cc1F ?
OUT: 93.3%

IN: O=c1ccnc2ccc(-c3cnc(Cl)c(NS(=O)(=O)c4ccc(F)cc4F)c3)cn12 ?
OUT: 91.6%

IN: COc1ncc(-c2ccc3nccc(=O)n3c2)cc1NS(=O)(=O)CC(F)(F)F ?
OUT: 78.3%

IN: COc1ncc(-c2ccc3nccc(=O)n3c2)cc1CS(=O)(=O)c1ccc(F)cc1F ?
OUT: 26%

IN: CCOc1ncc(-c2ccc3nccc(=O)n3c2)cc1NS(=O)(=O)c1ccccc1F ?
OUT: 59.6%

IN: COc1ncc(-c2ccc3nccc(=O)n3c2)cc1NS(=O)(=O)c1ccccc1F ?
OUT: 94.2%

IN: COc1ncc(-c2ccc3nccc(=O)n3c2)cc1NS(=O)(=O)c1ccc(Cl)cc1F ?
OUT: 94.8%

IN: COc1ccc(S(=O)(=O)Nc2cc(-c3ccc4nccc(=O)n4c3)cnc2OC)cc1 ?
OUT: 94.6%
